test system: SF-268; experiment: NCI tumour cell line growth inhibition, 48 h
Calls of active or inactive are those of the source. No stated cut-off is given here; in the data, active = GI50 up to about 1.1 µM and inactive = higher. Peptide text beside a SMILES is read from it. * marks the point of attachment. Cbz = O=C(OCc1ccccc1)*; Boc = CC(C)(C)OC(=O)*; OBn = c1ccc(CO*)cc1
Possible outcomes: TRUE = active, FALSE = inactive

{"Compound": "CC(C)=CC(=O)C[C@H]1C(=O)O[C@@H]2C[C@H]3C(C)=CC(=O)[C@@H](O)[C@]3(C)[C@H]3[C@@]4(O)OC[C@]32[C@@H]1[C@@H](C)[C@H]4O", "Group Label": "TRUE"}
{"Compound": "CCCCN1C(=O)NC(Cc2ccccc2)C1=O (centres undefined)", "Group Label": "FALSE"}
{"Compound": "CC(=O)C(=N\\Nc1ccc(Cl)cc1)/C(C)=N/c1ccc(C)cc1", "Group Label": "FALSE"}
{"Compound": "CCOC(=O)/C(=C\\NC(=S)Nc1ccc(OCC)cc1)C(=O)c1ccccc1", "Group Label": "FALSE"}
{"Compound": "Nc1nc(=O)[nH]c2c1cnn2Cc1ccccc1", "Group Label": "FALSE"}
{"Compound": "Cc1nc(C(N)=S)sc1C(=O)C/C(=N/N)C(=O)Nc1ccc(Cl)cc1", "Group Label": "FALSE"}
{"Compound": "CC(=O)OCC1OC(Sc2nc(-c3ccccc3)c(C#N)c(=O)n2C2OC(COC(C)=O)C(OC(C)=O)C(OC(C)=O)C2OC(C)=O)C(OC(C)=O)C(OC(C)=O)C1OC(C)=O (centres undefined)", "Group Label": "FALSE"}
{"Compound": "COC(=O)C(CCCCNC(=O)OCc1ccccc1)NC(=O)C(CCC(=O)OCc1ccccc1)NC(=O)OC(C)(C)C (centres undefined) (Boc-Glu(OBn)-Lys(Cbz)-OMe; configuration not given here)", "Group Label": "FALSE"}
{"Compound": "COC1=C(N2CC2)C(=O)c2nc3n(c2C1=O)CCC3", "Group Label": "FALSE"}

###

system: 786-0; test: NCI tumour cell line growth inhibition, 48 h
Activity calls are given as the source filed them. No stated cut-off is given here; in the data, active = GI50 up to about 1.1 µM and inactive = higher.
Possible outcomes: active, inactive

{"Compound": "O=C1CCCCCCCCCCC(=O)N2CCOCCOCCN1Cc1cccc(n1)C2", "Group Label": "inactive"}
{"Compound": "O=C(CN1CCCC1)Nc1ccc2sc3ccccc3c(=O)c2n1", "Group Label": "inactive"}
{"Compound": "N#Cc1ccc(C(O)C(F)(F)c2nc3ccccc3o2)cc1 (configuration not stated)", "Group Label": "inactive"}
{"Compound": "C=C(C)C#CC(O)(C(=O)OC1CCN(C)CC1)C(C)C (configuration not stated)", "Group Label": "inactive"}
{"Compound": "CC(=O)N(C)c1cc(NCc2ccccc2)ccc1OCc1ccccc1", "Group Label": "inactive"}
{"Compound": "N=C(N)n1nc2c(c1O)CCCC2", "Group Label": "inactive"}
{"Compound": "COc1cc(C2SCC(=O)N2c2ccc(Cl)cc2)cc(I)c1O (configuration not stated)", "Group Label": "inactive"}
{"Compound": "CN(C)c1ccc(/C=C/c2ccc(/C=C/c3ccc(N(C)C)cc3)cc2)cc1", "Group Label": "inactive"}
{"Compound": "CC1=C(/C=C/C(C)=C/C=C/C(C)=C/C=C/C=C(C)/C=C/C=C(C)/C=C/C=C(C)/C=C/C=C(\\C)C(=O)O)C(C)(C)CCC1", "Group Label": "inactive"}
{"Compound": "O=c1c(-c2ccccc2)c(SCCN2CCCC2)n(-c2ccccc2)c(=S)n1-c1ccccc1", "Group Label": "inactive"}
{"Compound": "COc1ccc(-c2coc3c4c(ccc3c2=O)OCO4)cc1OC", "Group Label": "inactive"}
{"Compound": "COc1ccc2[nH]c3c([N+](=O)[O-])ccc(Cl)c3c(=O)c2c1", "Group Label": "inactive"}
{"Compound": "CC(Oc1ccc(Cl)cc1Cl)C(=O)NN1C(=O)CSC1c1ccccc1 (configuration not stated)", "Group Label": "inactive"}
{"Compound": "COC(=O)C(=O)C(C(=O)C(=O)Nc1ccc(Cl)cc1C)c1nc2ccc(C(=O)c3ccccc3)cc2nc1O (configuration not stated)", "Group Label": "inactive"}
{"Compound": "CC(=O)c1ccc(N2C(=O)C3c4[nH]c5ccccc5c4C4CCC(C(C)(C)C)CC4C3C2=O)cc1 (configuration not stated)", "Group Label": "inactive"}
{"Compound": "COC(=O)CC(C#N)(OP1(=O)OC(c2ccccc2)C(C)N1C)c1ccccc1 (configuration not stated)", "Group Label": "inactive"}
{"Compound": "CCN(CC)CCNc1ccc2ncn3c4ccccc4c(=O)c1c23", "Group Label": "inactive"}
{"Compound": "c1cc2nsnc2c2c[nH]cc12", "Group Label": "inactive"}
{"Compound": "CN(C(=O)Cc1cc(Cl)c(Cl)cc1N=C=S)[C@H]1CCCC[C@@H]1N1CCCC1", "Group Label": "inactive"}
{"Compound": "COc1ccc(CNc2cnc3ccc(N)cc3n2)cc1OC", "Group Label": "inactive"}
{"Compound": "CCN1C(=O)C(=C/C=C/c2ccc(N(CC)CC)cc2)C(=O)N(CC)C1=S", "Group Label": "inactive"}
{"Compound": "CN(C)C(=O)Oc1c(-c2ccccc2)c(=O)n2c3ccccc3n3c(=O)n(C)c(=O)c1c23", "Group Label": "inactive"}
{"Compound": "C=C(Cl)C(Cl)(CCl)CCC(Br)C(C)(C)Br (configuration not stated)", "Group Label": "inactive"}
{"Compound": "Cc1ccc2nc3c(Cl)cc(=O)cc-3sc2c1", "Group Label": "inactive"}
{"Compound": "O=S(=O)(O)c1c(Cl)cc(O)c2ncccc12", "Group Label": "inactive"}
{"Compound": "CCCC(=O)OCC1OC(n2cc(F)c(=O)[nH]c2=O)C(F)C1O (configuration not stated)", "Group Label": "inactive"}
{"Compound": "CN1CC2CC(C1)c1cccc(=O)n1C2 (configuration not stated)", "Group Label": "inactive"}
{"Compound": "O=C(COc1ccc(Br)cc1Br)N1N=C(c2ccc([N+](=O)[O-])o2)CC1(O)c1ccccc1 (configuration not stated)", "Group Label": "inactive"}
{"Compound": "CC1(C)CCCCCCC2CC2CCCCCC(C)(C)C1=O (configuration not stated)", "Group Label": "inactive"}
{"Compound": "CO/C(N)=C(C#N)/N=C/c1ccsc1", "Group Label": "inactive"}
{"Compound": "CC(C)(C)NNC(=O)/C(=C/c1ccc(Oc2ccc(Cl)c(Cl)c2)cc1)NC(=O)c1ccccc1", "Group Label": "inactive"}
{"Compound": "C/C(Cl)=N/OC(=O)Nc1ccc(F)c([N+](=O)[O-])c1", "Group Label": "inactive"}
{"Compound": "O=C1OCC2=C1C(c1ccc(Cl)cc1)c1cc3c(cc1O2)OCO3 (configuration not stated)", "Group Label": "inactive"}
{"Compound": "COC(=O)C1=C(OC(=O)/C(=C/c2ccc(Cl)cc2)c2ccccc2)C(C(=O)OC)[C@@]2(O)[C@@H](C(=O)OC)[C@H](C)C[C@@H]1[C@@H]2C(=O)OC (some centres not stated)", "Group Label": "inactive"}
{"Compound": "O=C(N/N=C/c1ccccc1O)N/N=C/c1ccccc1O", "Group Label": "inactive"}
{"Compound": "Nc1nc2c(c(=O)[nH]1)C(c1ccc(Cl)cc1)C=C(c1ccccc1)N2 (configuration not stated)", "Group Label": "inactive"}
{"Compound": "COc1ccc(-c2nc(N(C)C)c3ccccc3n2)cc1", "Group Label": "inactive"}
{"Compound": "O=C(/C=C/c1ccco1)N1CCN(Cc2ccccc2)CC1", "Group Label": "inactive"}
{"Compound": "O=CN(O)CC(=O)O", "Group Label": "inactive"}
{"Compound": "N=c1n(CC(=O)NC23CC4CC(CC(C4)C2)C3)c2ccccc2n1CC(=O)NC12CC3CC(CC(C3)C1)C2", "Group Label": "inactive"}
{"Compound": "CC1CC#CCOC(=O)CCCC1=O (configuration not stated)", "Group Label": "inactive"}
{"Compound": "CC(C)=CC(=O)C[C@H]1C(=O)O[C@@H]2C[C@H]3C(C)=CC(=O)[C@@H](O)[C@]3(C)[C@H]3[C@@]4(O)OC[C@]32[C@@H]1[C@@H](C)[C@H]4O", "Group Label": "active"}

###

tested on: SF-268; experiment: NCI tumour cell line growth inhibition, 48 h
Active and inactive are the calls of the source. No stated cut-off is given here; in the data, active = GI50 up to about 1.1 µM and inactive = higher.

{"Compound": "COC(=O)[C@H](Cc1ccccc1)NC(=O)OCC1OC(n2cc(C)c(=O)[nH]c2=O)CC1N=[N+]=[N-] (some centres undefined)", "GI50": "> 100 µM (inactive)"}
{"Compound": "COc1cc2nc(-c3cccs3)nc(N3CCN(c4ccccc4C(F)(F)F)CC3)c2cc1OC", "GI50": "60.3 µM (inactive)"}
{"Compound": "COC(=O)NCCc1n[nH]c2c1C(=O)C=C(Nc1ccccc1OC)C2=O", "GI50": "45.7 µM (inactive)"}
{"Compound": "CSC(C1c2ccccc2N(C)C2=NC(=O)N(C)C(=O)C21Cl)S(=O)(=O)c1ccc(C)cc1 (centres undefined)", "GI50": "29.3 µM (inactive)"}
{"Compound": "c1cc2nsnc2c2c[nH]cc12", "GI50": "> 100 µM (inactive)"}
{"Compound": "O=c1c(Sc2c(SCSc3cnc4ccccc4c3Sc3c[nH]c4ccccc4c3=O)cnc3ccccc23)c[nH]c2ccccc12", "GI50": "92.3 µM (inactive)"}
{"Compound": "O=C(N/N=C/c1ccccc1O)N/N=C/c1ccccc1O", "GI50": "> 100 µM (inactive)"}
{"Compound": "Cc1c(C(=O)CC(=O)C(=O)Nc2cccc(C(F)(F)F)c2)[n+]([O-])c2ccccc2[n+]1[O-]", "GI50": "3.67 µM (inactive)"}
{"Compound": "COc1cc(S(=O)(=O)Nc2nc(-c3ccc(N4C(=O)C(CC(=O)O)SC4c4cccs4)cc3)cs2)ccc1Cl (centres undefined)", "GI50": "21.9 µM (inactive)"}
